Biological target: human Nav1.8 (Homo sapiens)
Sequence (Q9Y5Y9 whole entry): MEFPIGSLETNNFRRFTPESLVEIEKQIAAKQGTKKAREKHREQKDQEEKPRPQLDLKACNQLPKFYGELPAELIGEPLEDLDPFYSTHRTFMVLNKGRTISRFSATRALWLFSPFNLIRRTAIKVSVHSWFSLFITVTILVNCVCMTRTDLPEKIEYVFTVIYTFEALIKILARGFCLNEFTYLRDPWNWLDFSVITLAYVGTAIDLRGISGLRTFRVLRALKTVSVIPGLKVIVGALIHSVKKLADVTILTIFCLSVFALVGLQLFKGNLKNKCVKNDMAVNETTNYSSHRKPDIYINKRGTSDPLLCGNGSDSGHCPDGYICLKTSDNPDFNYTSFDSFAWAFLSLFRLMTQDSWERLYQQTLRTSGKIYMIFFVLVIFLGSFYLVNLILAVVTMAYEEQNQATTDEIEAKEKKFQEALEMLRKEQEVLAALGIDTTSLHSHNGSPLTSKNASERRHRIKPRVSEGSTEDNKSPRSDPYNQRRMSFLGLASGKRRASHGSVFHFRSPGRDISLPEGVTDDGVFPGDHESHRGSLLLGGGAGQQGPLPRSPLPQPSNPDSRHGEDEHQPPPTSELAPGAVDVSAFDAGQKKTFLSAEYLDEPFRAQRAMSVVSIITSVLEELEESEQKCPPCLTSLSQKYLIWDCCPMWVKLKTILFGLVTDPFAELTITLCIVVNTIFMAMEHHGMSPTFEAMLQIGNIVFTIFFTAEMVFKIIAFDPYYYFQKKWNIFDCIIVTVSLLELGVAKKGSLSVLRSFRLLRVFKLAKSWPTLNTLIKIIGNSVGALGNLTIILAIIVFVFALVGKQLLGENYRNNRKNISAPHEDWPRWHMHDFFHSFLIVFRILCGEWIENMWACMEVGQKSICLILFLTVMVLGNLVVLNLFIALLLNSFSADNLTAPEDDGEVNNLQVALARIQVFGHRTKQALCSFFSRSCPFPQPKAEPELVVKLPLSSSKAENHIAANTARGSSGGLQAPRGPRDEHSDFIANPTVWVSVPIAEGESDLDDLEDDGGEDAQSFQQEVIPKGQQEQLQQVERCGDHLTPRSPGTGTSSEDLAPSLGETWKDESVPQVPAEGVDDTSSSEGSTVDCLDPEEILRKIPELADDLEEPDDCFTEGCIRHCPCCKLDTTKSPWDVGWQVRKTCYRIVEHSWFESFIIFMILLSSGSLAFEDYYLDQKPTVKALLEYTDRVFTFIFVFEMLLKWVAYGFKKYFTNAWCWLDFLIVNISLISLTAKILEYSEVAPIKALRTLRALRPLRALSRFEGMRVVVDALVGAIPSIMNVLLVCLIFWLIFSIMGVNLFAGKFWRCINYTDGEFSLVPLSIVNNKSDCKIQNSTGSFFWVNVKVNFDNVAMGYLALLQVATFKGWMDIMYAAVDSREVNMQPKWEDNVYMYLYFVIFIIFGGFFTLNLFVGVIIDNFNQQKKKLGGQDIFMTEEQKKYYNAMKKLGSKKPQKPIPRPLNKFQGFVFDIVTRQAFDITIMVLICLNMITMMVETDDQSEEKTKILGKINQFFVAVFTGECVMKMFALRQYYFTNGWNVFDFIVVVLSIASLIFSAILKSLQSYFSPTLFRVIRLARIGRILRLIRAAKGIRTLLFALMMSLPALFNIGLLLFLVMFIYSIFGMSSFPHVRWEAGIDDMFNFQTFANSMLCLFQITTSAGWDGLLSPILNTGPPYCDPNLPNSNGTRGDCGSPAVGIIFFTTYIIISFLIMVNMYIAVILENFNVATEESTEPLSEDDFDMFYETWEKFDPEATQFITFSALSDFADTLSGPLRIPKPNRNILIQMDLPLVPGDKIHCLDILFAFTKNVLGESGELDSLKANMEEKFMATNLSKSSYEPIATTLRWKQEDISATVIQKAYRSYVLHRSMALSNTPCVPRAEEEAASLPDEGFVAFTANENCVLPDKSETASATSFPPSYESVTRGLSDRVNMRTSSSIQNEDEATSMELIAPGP
Assay: SyncroPatch384PE assay (automated patch clamp)
Assay type: cell-based
Details: resting state block (P1 measurement), human Nav1.8/b3 CHO cells, read-out: P1 IC50
pIC50: −log10 of the molar value.
pIC50 listing for selected compounds.

Example compounds with recorded pIC50:
Which pIC50 is reported for this compound? Cc1c(-c2cnn(C)c2)cnc(N2CCCC(F)(F)CC2)c1C(=O)Nc1ccnc([S@](C)(=N)=O)c1
6.70 to 7.00

Which pIC50 is reported for this compound? Cc1nc(N2CCC3(CC2)CC3)c(C(=O)Nc2cccc(S(C)(=N)=O)c2)cc1C(F)(F)F (stereo not drawn)
≥ 8.30

Which pIC50 is reported for this compound? Cc1nc(C(F)(F)F)nc(N2CCCC(F)(F)CC2)c1C(=O)Nc1cccc([S@@](C)(=N)=O)c1
7.00 to 7.30

Which pIC50 is reported for this compound? Cc1c(C#N)c(C(F)(F)F)nc(N2CCCC(F)(F)CC2)c1C(=O)Nc1cccc([S@@](C)(=O)=NC(=O)C2(N)CCC2)c1
7.00 to 7.30

Which pIC50 is reported for this compound? Cc1nc(N2CCCC(F)(F)CC2)c(C(=O)Nc2cccc(S(C)(=N)=O)c2)cc1Cl (stereo in doubt) [Example 17]
≥ 8.30

// moving on: another record for pIC50
Which pIC50 is reported for this compound? Cc1n[nH]c(C)c1-c1cnc(N2CCCC(F)(F)CC2)c(C(=O)Nc2cccc([S@](C)(=N)=O)c2)c1C
< 6.70
